From: patent US5997843A

# assay_notes: Biodistribution in rats
# Type: in vivo, male rats
# test_conditions: 2 min post-injection, i.v.
observation_type: Liver (percent injected dose)
Give your result in percent injected dose as a bare value.

{"columns": ["compound", "quantitative_result"],
 "data": [
  ["COC(=O)C(CCCNC(C)(C)C(C)=NO)NC(C)(C)C(C)=NO (stereo not drawn)", 4.4],
  ["CC(=NO)C(C)(C)NCCCNC(C)(C)C(Cn1ccnc1[N+](=O)[O-])=NO [Compound V, reference compound]", 25.1],
  ["CCC(=NO)C(C)(C)NCCCCNC(C)(C)C=NO", 12.9]
]}

For this compound ( CC(=NO)C(C)NCCCCNC(C)C(C)=NO (stereo not drawn) ), measured Liver is 18.4

// field: Liver; key: CC(C)(C=NO)NCCCCNC(C)(C)C(Cn1ccnc1[N+](=O)[O-])=NO ; value = 16.0

// CC(=NO)C(C)(C)NCCCCCNC(C)(C)C(C)=NO : Liver value = 9.7

* * *

# System: isolated (Langendorff) rat hearts
# assay_notes: Isolated perfused heart (Langendorff), hypoxic vs oxic uptake/retention
# test_conditions: ^99m Tc complex (or ^123 I-IAZA), 20 min infusion, 15 min washout
observation_type: Hypoxic/Oxic Ratio (H/O)
# answer = number (no unit)

{"columns": ["compound", "Hypoxic/Oxic Ratio (H/O)"],
 "data": [
  ["CC(=NO)C(C)(C)NCCCCNC(C)(C)C(C)=NO", 54],
  ["CC(C)(NCCCCNC(C)(C)C(Cn1ccnc1[N+](=O)[O-])=NO)C(Cn1ccnc1[N+](=O)[O-])=NO", 3.4],
  ["CC(=NO)C(C)(C)NCCCCNC(C)(C)C(Cn1ccnc1[N+](=O)[O-])=NO", 28],
  ["COC(=O)C(CCCNC(C)(C)C(C)=NO)NC(C)(C)C(C)=NO (centres unmarked)", 4.0],
  ["CC(C)(C=NO)NCCCCNC(C)(C)C(Cn1ccnc1[N+](=O)[O-])=NO", 9.5],
  ["CCC(=NO)C(C)(C)NCCCCNC(C)(C)C(CC)=NO", 34],
  ["COCC(=NO)C(C)(COC)NCCCCNC(C)(COC)C(COC)=NO (centres unmarked)", 1.2],
  ["CCC(=NO)C(C)(C)NCCCCNC(C)(C)C=NO", 8.8]
]}

Record CC(=NO)C(C)(C)NCCCNC(C)(C)C(Cn1ccnc1[N+](=O)[O-])=NO [Compound V, reference compound] / isolated (Langendorff) rat hearts, Hypoxic/Oxic Ratio (H/O) recorded as 10

Readout Hypoxic/Oxic Ratio (H/O) for CCC(=NO)C(C)(C)NCCCCNC(C)(C)C(C)=NO , test system isolated (Langendorff) rat hearts, was 8.4

Tested on isolated (Langendorff) rat hearts: O=[N+]([O-])c1nccn1[C@H]1O[C@H](C[123I])[C@@H](O)[C@@H]1O [^123 I-IAZA, ^123 I-iodoazomycin arabinoside, reference compound] . Observed Hypoxic/Oxic Ratio (H/O): 10

isolated (Langendorff) rat hearts data for CC(C)(C=NO)NCCCCNC(C)(C)C=NO ; its Hypoxic/Oxic Ratio (H/O): 3.2

The compound CC(=NO)C(C)(C)NCCCCCNC(C)(C)C(Cn1ccnc1[N+](=O)[O-])=NO , when measured on isolated (Langendorff) rat hearts, yielded Hypoxic/Oxic Ratio (H/O) of 2.4

Lab note: compound CC(=NO)C(C)(C)NCCCNC(C)(C)C(C)=NO [Compound X, reference compound] tested on isolated (Langendorff) rat hearts; recorded Hypoxic/Oxic Ratio (H/O) was 5.1

* * *

# assay_notes: Biodistribution in rats
# Format: in vivo, male rats
# test_conditions: 240 min post-injection (third printed value), i.v.
observation_type: Muscle (percent injected dose)
Express your answer in percent injected dose, writing the number without its unit.

Worked examples follow.
{"columns": ["compound", "display_unit", "quantitative_result"],
 "data": [
  ["CC(=NO)C(C)(C)NCCCCNC(C)(C)C(Cn1ccnc1[N+](=O)[O-])=NO [Compound II]", "percent injected dose", 3.1],
  ["CCC(=NO)C(C)(C)NCCCCNC(C)(C)C(CC)=NO [Compound VIII]", "percent injected dose", 2.4],
  ["CC(=NO)C(C)(C)NCCCNC(C)(C)C(Cn1ccnc1[N+](=O)[O-])=NO [Compound V, reference compound]", "percent injected dose", 2.4],
  ["COCC(=NO)C(C)(COC)NCCCCNC(C)(COC)C(COC)=NO (stereo not drawn) [Compound XV]", "percent injected dose", 1.9]
]}

// recorded Muscle for CCC(=NO)C(C)(C)NCCCCNC(C)(C)C=NO [Compound VII] : 7.5

CC(=NO)C(C)(C)NCCCCCNC(C)(C)C(C)=NO [Compound III] has a reported Muscle of 3.3

* * *

# assay_notes: Biodistribution in rats
# Format: in vivo, male rats
# test_conditions: second of two values, 60 or 240 min not assignable, i.v.
Blood vs 2 percent injected dose: at or above is class 1, below is class 0.

{"columns": ["molecule", "label_value"],
 "data": [
  ["CC(=NO)C(C)NCCCCNC(C)C(C)=NO (stereo not drawn)", "class 1"],
  ["COC(=O)C(CCCNC(C)(C)C(C)=NO)NC(C)(C)C(C)=NO (stereo not drawn)", "class 1"],
  ["CC(=NO)C(C)(C)NCCCNC(C)(C)C(Cn1ccnc1[N+](=O)[O-])=NO [Compound V, reference compound]", "class 1"],
  ["CC(=NO)C(C)(C)NCCCCCNC(C)(C)C(Cn1ccnc1[N+](=O)[O-])=NO", "class 0"],
  ["CCC(=NO)C(C)(C)NCCCCNC(C)(C)C(CC)=NO", "class 0"]
]}

Does CC(C)(NCCCCNC(C)(C)C(Cn1ccnc1[N+](=O)[O-])=NO)C(Cn1ccnc1[N+](=O)[O-])=NO have a reported Blood of at least 2 percent injected dose?
class 0

# check: Blood of CC(=NO)C(C)(C)NCCCNC(C)(C)C(C)=NO [Compound X, reference compound] is greater than or equal to 2 percent injected dose
class 1

Threshold query (Blood >= 2 percent injected dose) on CCC(=NO)C(C)(C)NCCCCNC(C)(C)C=NO
class 1

State whether the measured Blood reaches 2 percent injected dose, counting equality as reaching it, for CC(=NO)C(C)(C)NCCCCCNC(C)(C)C(C)=NO
class 0

Please check the record COCC(=NO)C(C)(COC)NCCCCNC(C)(COC)C(COC)=NO (stereo not drawn) and state if its Blood is at or above 2 percent injected dose.
class 0

Does the reported Blood for CC(C)(C=NO)NCCCCNC(C)(C)C=NO fall at or above the 2 percent injected dose mark?
class 1

Test whether the molecule CC(=NO)C(C)(C)NCCCCNC(C)(C)C(C)=NO records Blood of 2 percent injected dose or higher.
class 1

Answer whether Blood of CC(=NO)C(C)(C)NCCCCNC(C)(C)C(Cn1ccnc1[N+](=O)[O-])=NO is greater than or equal to 2 percent injected dose.
class 0

* * *

# assay_notes: Biodistribution in rats
# Format: in vivo, male rats
# test_conditions: 2 min post-injection, i.v.
observation_type: Bladder/Urine (percent injected dose)
Quick reminder: number only, in percent injected dose, skip the unit.

// worked examples, Bladder/Urine included
{"columns": ["compound", "Bladder/Urine [percent injected dose]"],
 "data": [
  ["CC(=NO)C(C)(C)NCCCCNC(C)(C)C(C)=NO [Compound I]", 0.6],
  ["CC(C)(NCCCCNC(C)(C)C(Cn1ccnc1[N+](=O)[O-])=NO)C(Cn1ccnc1[N+](=O)[O-])=NO [Compound XI]", 0.2],
  ["CC(=NO)C(C)(C)NCCCCCNC(C)(C)C(C)=NO [Compound III]", 0.2],
  ["CCC(=NO)C(C)(C)NCCCCNC(C)(C)C(C)=NO [Compound IX]", 0.8]
]}

Note to self: Bladder/Urine recorded for CC(C)(C=NO)NCCCCNC(C)(C)C(Cn1ccnc1[N+](=O)[O-])=NO [Compound XII] was 1.2

* * *

Reported Kidney values follow for various compounds
# assay_notes: Biodistribution in rats
# Assay type: in vivo, male rats
# test_conditions: 2 min post-injection, i.v.
Just the number in percent injected dose, nothing appended.

Some solved entries appear below for comparison.
{"columns": ["compound", "quantitative_result"],
 "data": [
  ["CCC(=NO)C(C)(C)NCCCCNC(C)(C)C=NO [Compound VII]", 9.8],
  ["CC(=NO)C(C)(C)NCCCCNC(C)(C)C(Cn1ccnc1[N+](=O)[O-])=NO [Compound II]", 13.1],
  ["CC(=NO)C(C)(C)NCCCCCNC(C)(C)C(Cn1ccnc1[N+](=O)[O-])=NO [Compound IV]", 12.1],
  ["CC(C)(NCCCCNC(C)(C)C(Cn1ccnc1[N+](=O)[O-])=NO)C(Cn1ccnc1[N+](=O)[O-])=NO [Compound XI]", 8.6],
  ["CC(C)(C=NO)NCCCCNC(C)(C)C=NO [Compound VI]", 12.5],
  ["COCC(=NO)C(C)(COC)NCCCCNC(C)(COC)C(COC)=NO (stereo not drawn) [Compound XV]", 14.2],
  ["CC(=NO)C(C)(C)NCCCNC(C)(C)C(Cn1ccnc1[N+](=O)[O-])=NO [Compound V, reference compound]", 4.1],
  ["CCC(=NO)C(C)(C)NCCCCNC(C)(C)C(CC)=NO [Compound VIII]", 7.8]
]}

Looking up CC(=NO)C(C)NCCCCNC(C)C(C)=NO (stereo not drawn) [Compound XIII] , I found its Kidney recorded as 8.8

// sample CCC(=NO)C(C)(C)NCCCCNC(C)(C)C(C)=NO [Compound IX] , its Kidney was 7.7

Given item CC(=NO)C(C)(C)NCCCCNC(C)(C)C(C)=NO [Compound I] , the value recorded as its Kidney is 7.5
